tested on: Wolbachia pipientis; experiment: Anti-Wolbachia Cell-Based Screen; assay type: functional; set-up: scale not given: in the data most compounds retested in dose-response had high values; details: 5 µM
Hit rate of the full screen: of about 48,000 compounds, about 13,000 (27%) showed an effect of 50% or more. The list shows a part of the results.
value-type: Percent Effect (%)
Write the value in % as a bare number.

// fetch Percent Effect given entry `O=C(Nc1ccc(CN2CCOCC2)cc1)c1nccn2ccnc12` -3.19

// fetch Percent Effect given entry CC(=O)N1CCCC1c1cc(N2CCN(CC(C)(C)C)CC2)cc(C)n1 (centres undefined) 123.3

// fetch Percent Effect given entry `O=C(c1ccc2occc2c1)N1CCC(C(=O)O)(n2cccn2)CC1` 17.51

Continuing:
// fetch Percent Effect given entry `Cc1oc(C(C)C)cc1C(=O)N1C[C@H]2CC[C@@H]1CN(S(=O)(=O)N(C)C)C2` 1.683

// fetch Percent Effect given entry `COCc1ccccc1C(=O)NS(=O)(=O)CCCC#N` -8.648

// fetch Percent Effect given entry `COCCN(Cc1sccc1C)c1nc(C)nc2sccc12` -3.328

// fetch Percent Effect given entry `O=C(CCc1ccc(-n2cnnn2)cc1)Nc1ccncc1` 118.2

// fetch Percent Effect given entry `O=C(Cc1ccc(-n2cnnn2)cc1)Nc1nncs1` -7.49

// fetch Percent Effect given entry Cn1cnnc1C1CCCN(C(=O)c2ccccc2Cl)C1 (centres undefined) 1.344

---

test system: Wolbachia pipientis; experiment: Anti-Wolbachia Cell-Based Screen; format: functional; parameters: scale not given: in the data most compounds retested in dose-response had high values; conditions: 5 µM
Hit rate of the full screen: of about 48,000 compounds, about 13,000 (27%) showed an effect of 50% or more. Some of the results follow.
value-type: Percent Effect (%)
Write the value in % as a bare number.

These solved cases illustrate the format of a correct answer.
// fetch Percent Effect given entry NC(=O)NCC(=O)N1CCCC(c2nccn2Cc2ccncc2)C1 (centres undefined) -11.58

// fetch Percent Effect given entry OC(CN1CCC(c2ccn[nH]2)CC1)c1cc(F)ccc1F (centres undefined) 116

// fetch Percent Effect given entry Cc1cc(C2CCCN2C(=O)CN2CCc3ccccc32)on1 (centres undefined) -2.751

// fetch Percent Effect given entry `CCCc1ccc(CN2CCN(C(=O)NCC)[C@H]3CS(=O)(=O)C[C@H]32)o1` -11.9

// fetch Percent Effect given entry `O=C(NC1CC(F)(F)C1)[C@]12COC[C@H]1CN(Cc1ccccc1)C2.O=C(O)C(F)(F)F` -29.2

Continuing:
// fetch Percent Effect given entry `Cc1cc(NC(=O)CNC(C)(C)c2ccccc2)on1` 5.655

// fetch Percent Effect given entry `N#Cc1ccc(CNC(=O)NCCC(=O)NC2CCCC2)c(F)c1` 1.823

// fetch Percent Effect given entry `Cc1noc(C)c1CN1C[C@@H]2CCCO[C@@H]2[C@H](Nc2ccccn2)C1.O=C(O)C(F)(F)F.O=C(O)C(F)(F)F` 91.6

// fetch Percent Effect given entry `CCOc1ccccc1N(C)C(=O)c1cscn1` 11.28

---

Measured Percent Effect values are reported for all entries that follow.
tested on: Wolbachia pipientis; assay: Anti-Wolbachia Cell-Based Screen; format: functional; parameters: scale not given: in the data most compounds retested in dose-response had high values; settings: 5 µM
Screen size: about 48,000 compounds; about 13,000 (27%) showed an effect of 50% or more. The list shows a part of the results.
Write the value in % as a bare number.

// fetch Percent Effect given entry `CN(C)CCOc1ccccc1N1CCN(C(=O)c2ccoc2)CC1` -4.916

// fetch Percent Effect given entry `Cc1ccc(CN2CCOCC2)cc1NC(=O)c1ccsc1` -4.906

Continuing:
// fetch Percent Effect given entry CSCCC(O)C(=O)N(C)Cc1cnn(-c2ccc(F)cc2)c1 (stereo not given) 17.62

// fetch Percent Effect given entry `CC(C)c1nccc(CN(C)Cc2cnn(-c3ccccc3)c2)n1` 112.3

// fetch Percent Effect given entry Cc1nc(C(C)Nc2nc3c(s2)c(C)nn3C)n[nH]1 (stereo not given) 87.1

// fetch Percent Effect given entry `CCc1ccc(CN2CCN(c3ccc(Cl)nn3)CC2)nc1` -1.382

---

Measured Percent Effect values are reported for all entries that follow.
system: Wolbachia pipientis; assay: Anti-Wolbachia Cell-Based Screen; format: functional; set-up: scale not given: in the data most compounds retested in dose-response had high values; conditions: 5 µM
Screen size: about 48,000 compounds; about 13,000 (27%) showed an effect of 50% or more. This is one part of the list.
Write the value in % as a bare number.

State Percent Effect on Wolbachia pipientis. Entry: `CCN(CC)CCCNc1nccc(-c2cn(C)nc2C)n1` -2.773

State Percent Effect on Wolbachia pipientis. Entry: `NC(=O)CC1CCN(C(=O)c2csc(-c3ccccc3F)n2)CC1` -1.67

State Percent Effect on Wolbachia pipientis. Entry: CCCn1cc(-c2ccnc(NC3CCCc4ccccc43)n2)c(C)n1 (stereo unspecified) 2.739

State Percent Effect on Wolbachia pipientis. Entry: `CNC(=O)C1CCN(C(=O)c2cccn2Cc2cccs2)CC1` 0.5999

State Percent Effect on Wolbachia pipientis. Entry: `Cc1cccc(C(=O)Nc2ccc(OC3CCOCC3)c(C)c2)n1` 4.017

State Percent Effect on Wolbachia pipientis. Entry: `O=C(c1ccon1)N1CCc2ncnc(NCc3ccccn3)c2CC1` -13.25

Continuing:
State Percent Effect on Wolbachia pipientis. Entry: Cc1noc(C)c1CNC(=O)C(C)Oc1ccccc1F (stereo unspecified) -0.2471

State Percent Effect on Wolbachia pipientis. Entry: `CN(C)CC(=O)N1CCc2ncnc(-c3ccsc3)c2CC1` -2.469

State Percent Effect on Wolbachia pipientis. Entry: `CCOC(=O)N1CCN(c2nc(NCCCO)c3ccccc3n2)CC1.Cl` 3.007

---

system: Wolbachia pipientis; assay: Anti-Wolbachia Cell-Based Screen; format: functional; set-up: scale not given: in the data most compounds retested in dose-response had high values; conditions: 5 µM
The whole screen tested about 48,000 compounds, of which about 13,000 (27%) showed an effect of 50% or more. This is one part of the list.
value-type: Percent Effect (%)
Write the value in % as a bare number.

These solved cases illustrate the format of a correct answer.
State Percent Effect on Wolbachia pipientis. Entry: `O=C(NCC1(O)CCOCC1)c1ccn(-c2ccccc2F)n1` -4.813

State Percent Effect on Wolbachia pipientis. Entry: CCN1CCCC1Cn1ccc2c(OC)c(OC)ccc2c1=O (stereo not drawn) -2.049

State Percent Effect on Wolbachia pipientis. Entry: CC(C)(CO)NC(=O)C1CCC(=O)N(Cc2ccc(Cl)cc2)C1 (stereo not drawn) -2.281

State Percent Effect on Wolbachia pipientis. Entry: `CCOc1ccc2[nH]c(=O)c(CN3CCC(O)CC3)cc2c1` -5.024

State Percent Effect on Wolbachia pipientis. Entry: `O=C(Cc1csc(-c2ccccc2)n1)N[C@@H](C(=O)O)c1ccccc1` 112.5

State Percent Effect on Wolbachia pipientis. Entry: O=C(Cc1csc(-c2ccc(Cl)cc2)n1)NC(C(=O)O)c1ccccc1 (stereo not drawn) 14.14

State Percent Effect on Wolbachia pipientis. Entry: COc1cc2[nH]c(=O)c(CN3CCCC3C)cc2c(OC)c1OC (stereo not drawn) -17.42

State Percent Effect on Wolbachia pipientis. Entry: `COc1ccc2[nH]c(=O)c(CN(C)CCN3CCCC3)cc2c1` -6.943

Continuing:
State Percent Effect on Wolbachia pipientis. Entry: `CC[C@H](C)[C@H](NC(=O)Cc1csc(-c2cccc(Cl)c2)n1)C(=O)O` -0.2804

State Percent Effect on Wolbachia pipientis. Entry: CCN1CCCC1CNCc1cc2cc(C)c(C)cc2[nH]c1=O (stereo not drawn) 108.5

State Percent Effect on Wolbachia pipientis. Entry: COc1cccc(CNc2nc(O)cc(C3CC(=O)N(C)C3)n2)c1 (stereo not drawn) -3.669

State Percent Effect on Wolbachia pipientis. Entry: CCN1CCCC1CNCc1cc2cc3c(cc2[nH]c1=O)OCCO3 (stereo not drawn) 90.42

State Percent Effect on Wolbachia pipientis. Entry: CN1CC(c2cc(O)nc(NCc3ccc(Cl)cc3)n2)CC1=O (stereo not drawn) 70.24

---

Measured Percent Effect values are reported for all entries that follow.
test system: Wolbachia pipientis; assay: Anti-Wolbachia Cell-Based Screen; assay type: functional; set-up: scale not given: in the data most compounds retested in dose-response had high values; details: 5 µM
About 13,000 (27%) of roughly 48,000 compounds showed an effect of 50% or more. This is one part of the list.
Write the value in % as a bare number.

// fetch Percent Effect given entry `O=C(CC1CC1)N1CCC2(CC1)CN(c1cccnc1)C(=O)CO2.O=C(O)C(F)(F)F` 86.93

// fetch Percent Effect given entry `Cn1ccnc1CN1CCC2(CC1)CN(Cc1ccccc1)C(=O)CO2.O=C(O)C(F)(F)F` -7.87

Continuing:
// fetch Percent Effect given entry `Cc1ccccc1CN1CCCN(S(=O)(=O)N(C)C2CCCCC2)CC1` -4.096

Ref: ChEMBL document CHEMBL3988442
